system_under_test: Suppressor of tumorigenicity 14 protein (Homo sapiens)
Sequence (Q9Y5Y6 whole entry): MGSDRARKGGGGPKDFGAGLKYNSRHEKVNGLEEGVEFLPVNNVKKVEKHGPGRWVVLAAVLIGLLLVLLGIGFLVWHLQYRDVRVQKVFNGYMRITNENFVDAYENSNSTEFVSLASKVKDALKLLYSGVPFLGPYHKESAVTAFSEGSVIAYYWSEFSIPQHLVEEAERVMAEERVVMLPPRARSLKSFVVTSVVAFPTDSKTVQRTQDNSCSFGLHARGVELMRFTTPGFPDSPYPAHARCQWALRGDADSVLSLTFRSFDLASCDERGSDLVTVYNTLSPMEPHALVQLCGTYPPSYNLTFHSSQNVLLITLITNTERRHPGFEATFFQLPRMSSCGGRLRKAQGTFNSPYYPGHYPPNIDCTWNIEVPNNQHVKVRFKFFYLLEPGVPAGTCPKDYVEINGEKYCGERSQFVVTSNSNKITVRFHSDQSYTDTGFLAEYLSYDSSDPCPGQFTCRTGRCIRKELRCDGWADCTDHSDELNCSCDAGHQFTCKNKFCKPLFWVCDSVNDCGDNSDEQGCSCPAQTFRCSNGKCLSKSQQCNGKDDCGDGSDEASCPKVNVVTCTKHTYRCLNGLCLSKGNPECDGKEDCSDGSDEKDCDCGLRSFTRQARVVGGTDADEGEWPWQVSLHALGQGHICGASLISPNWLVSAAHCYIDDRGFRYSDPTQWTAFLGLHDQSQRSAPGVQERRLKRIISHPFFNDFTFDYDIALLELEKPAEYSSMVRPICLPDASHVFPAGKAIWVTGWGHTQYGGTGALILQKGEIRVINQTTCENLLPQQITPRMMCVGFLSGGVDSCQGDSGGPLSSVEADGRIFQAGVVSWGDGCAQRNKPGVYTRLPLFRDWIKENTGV
A compilation of published log10(Ki) results with Suppressor of tumorigenicity 14 protein (Homo sapiens).
measure: log10(Ki) (log10 of the value in nM)

compound | log10(Ki)
CC[C@@H](C)[C@@H](NC(=O)[C@H](CCc1ccccc1)NC(=O)CCc1ccccc1)C(=O)N[C@@H](CCCNC(=N)N)C(=O)c1nc2ccccc2s1 | 2.18
CCNC(=O)NC1CCN(C(=O)[C@H](Cc2cccc(C(=N)N)c2)NS(=O)(=O)c2cccc(NC(=O)CCN)c2)CC1 | 1.59
N=C(N)c1ccc(OCc2ccccc2COc2ccc(C(=N)N)cc2)cc1 | 3.36
N=C(N)NCCC(=O)N1CCN(C(=O)[C@H](Cc2cccc(C(=N)N)c2)NS(=O)(=O)c2ccc3c(c2)C(=O)c2ccccc2C3=O)CC1 | 1.72
N=C(N)c1cccc(C[C@H](NS(=O)(=O)c2ccc3ccccc3c2)C(=O)N2CCC(CCCN)CC2)c1 | 2.20
COc1ccc(-c2cccc(S(=O)(=O)N[C@@H](Cc3cccc(C(=N)N)c3)C(=O)N3CCN(C(=O)OC(C)(C)C)CC3)c2)c(OC)c1 | 1.23
N=C(N)c1ccc(Oc2ccc(NS(=O)(=O)c3cccc4cccnc34)c(Oc3ccc(C(=N)N)cc3)n2)cc1 | 2.30
N=C(N)c1cccc(C[C@H](NS(=O)(=O)c2cccc(NC(=O)CCN)c2)C(=O)N2CCC(CCCN)CC2)c1 | 0.70
C[C@H](O)[C@H](NC(=O)[C@H](CCc1ccccc1)NC(=O)CCc1ccccc1)C(=O)N[C@@H](CCCNC(=N)N)C(=O)c1nc2ccccc2s1 | 2.30
N=C(N)c1cccc(C[C@H](NS(=O)(=O)c2cccc(NC(=O)CCN)c2)C(=O)N2CCN(c3ccc(O)cc3)CC2)c1 | 2.18
N=C(N)c1cccc(C[C@H](NS(=O)(=O)c2ccc3ccccc3c2)C(=O)N2CCN(C(=O)NCc3ccccc3)CC2)c1 | 3.41
N=C(N)c1cccc(C[C@H](NS(=O)(=O)c2cccc(NC(=O)CCN)c2)C(=O)N2CCC(CCNC(=O)NCc3ccccc3)CC2)c1 | 1.23
CC(C)c1cc(C(C)C)c(S(=O)(=O)N[C@@H](Cc2cccc(C(=N)N)c2)C(=O)N2CCCN(C(=O)CCN=C(N)N)CC2)c(C(C)C)c1 | 1.81
COC(=O)[C@@H]1CCCCN1C(=O)[C@H](Cc1cccc(C(=N)N)c1)NS(=O)(=O)c1cccc(NC(=O)CCN)c1 | 3.38
CC(C)(C)NC(=O)NC1CCN(C(=O)[C@H](Cc2cccc(C(=N)N)c2)NS(=O)(=O)c2cccc(-c3ccc(COC(C)(C)C)cc3)c2)CC1 | 2.23
CC(C)c1cc(C(C)C)c(S(=O)(=O)NC(Cc2cccc(C(=N)N)c2)C(=O)N2CCN(C(=O)CN)CC2)c(C(C)C)c1 (racemic) | 2.84
Cc1c(C)c(S(=O)(=O)N[C@@H](Cc2cccc(C(=N)N)c2)C(=O)N2CCN(C(=O)CCN=C(N)N)CC2)c(C)c2c1OC(C)(C)C2 | 2.86
CNC(=O)NC1CCN(C(=O)[C@H](Cc2cccc(C(=N)N)c2)NS(=O)(=O)c2cccc(NC(=O)CCN)c2)CC1 | 1.75
CC(C)c1cc(C(C)C)c(S(=O)(=O)N[C@@H](Cc2cccc(C(=N)N)c2)C(=O)N2CCC(C(=O)NCCN=C(N)N)CC2)c(C(C)C)c1 | 2.15
N=C(N)c1cccc(C[C@H](NS(=O)(=O)c2cccc(NC(=O)CCN)c2)C(=O)N2CCC(CCN=C(N)N)CC2)c1 | 0.26
N=C(N)c1cccc(CC(NS(=O)(=O)c2cccc(-c3ccccc3)c2)C(=O)N2CCC(CCN)CC2)c1 (racemic) | 2.04
N=C(N)c1cccc(C[C@H](NS(=O)(=O)c2cccc(NC(=O)CCN)c2)C(=O)N2CCNCC2)c1 | 1.57
N=C(N)c1cccc(C[C@H](NS(=O)(=O)c2cccc(-c3cccc(Cl)c3Cl)c2)C(=O)N2CCC(CCN)CC2)c1 | 1.04
CC(C)c1cc(C(C)C)c(S(=O)(=O)N[C@@H](Cc2cccc(C(=N)N)c2)C(=O)N2CCCN(C(=O)C3CCN(C(=N)N)CC3)CC2)c(C(C)C)c1 | 1.70
N=C(N)NCCC(=O)N1CCN(C(=O)[C@H](Cc2cccc(C(=N)N)c2)NS(=O)(=O)c2ccc(C3CCCCC3)cc2)CC1 | 1.95
N=C(N)NCCC(=O)Nc1cccc(S(=O)(=O)N[C@@H](Cc2cccc(C(=N)N)c2)C(=O)N2CCC(CCNC(=N)N)CC2)c1 | 0.62
N=C(N)c1cccc(C[C@H](NS(=O)(=O)c2cccc(-c3ccc(Cl)cc3Cl)c2)C(=O)N2CCC(NC(=O)NC3CCCCC3)CC2)c1 | 0.71
N=C(N)NCCC1CCN(C(=O)[C@H](Cc2cccc(C(=N)N)c2)NS(=O)(=O)c2ccc(C3CCCCC3)cc2)CC1 | 1.94
CC1CCCCN1C(=O)[C@H](Cc1cccc(C(=N)N)c1)NS(=O)(=O)c1cccc(NC(=O)CCN)c1 (some centres undefined) | 2.67
